biological target: CDK12 (aa686-1082)/cyclinK complex (Homo sapiens, UniProt Q9NYV4); construct: A CDK12 (aa686-1082)/cyclinK complex (50 nM); assay: In-vitro enzymatic inhibitory activity testing, CDK12 inhibition assay (Caliper EZ Reader II); assay type: biochemical; conditions: CDK12/cyclinK 50 nM, 180 min at 27° C.; read-out: CDK12 IC50
Sequence (Q9NYV4 686-1082, species assumed): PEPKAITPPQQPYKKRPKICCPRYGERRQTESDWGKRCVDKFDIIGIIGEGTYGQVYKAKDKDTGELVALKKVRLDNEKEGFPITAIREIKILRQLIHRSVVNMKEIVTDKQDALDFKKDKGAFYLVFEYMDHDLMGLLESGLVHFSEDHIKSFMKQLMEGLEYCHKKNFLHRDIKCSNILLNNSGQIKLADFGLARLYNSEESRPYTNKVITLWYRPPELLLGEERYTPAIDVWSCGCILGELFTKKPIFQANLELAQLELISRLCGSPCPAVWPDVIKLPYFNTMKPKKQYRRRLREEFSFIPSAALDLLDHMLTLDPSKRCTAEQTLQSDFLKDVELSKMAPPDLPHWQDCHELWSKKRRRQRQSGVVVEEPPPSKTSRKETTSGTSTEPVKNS
Sequence (O75909 whole entry partner, species assumed, the tested form may be a part): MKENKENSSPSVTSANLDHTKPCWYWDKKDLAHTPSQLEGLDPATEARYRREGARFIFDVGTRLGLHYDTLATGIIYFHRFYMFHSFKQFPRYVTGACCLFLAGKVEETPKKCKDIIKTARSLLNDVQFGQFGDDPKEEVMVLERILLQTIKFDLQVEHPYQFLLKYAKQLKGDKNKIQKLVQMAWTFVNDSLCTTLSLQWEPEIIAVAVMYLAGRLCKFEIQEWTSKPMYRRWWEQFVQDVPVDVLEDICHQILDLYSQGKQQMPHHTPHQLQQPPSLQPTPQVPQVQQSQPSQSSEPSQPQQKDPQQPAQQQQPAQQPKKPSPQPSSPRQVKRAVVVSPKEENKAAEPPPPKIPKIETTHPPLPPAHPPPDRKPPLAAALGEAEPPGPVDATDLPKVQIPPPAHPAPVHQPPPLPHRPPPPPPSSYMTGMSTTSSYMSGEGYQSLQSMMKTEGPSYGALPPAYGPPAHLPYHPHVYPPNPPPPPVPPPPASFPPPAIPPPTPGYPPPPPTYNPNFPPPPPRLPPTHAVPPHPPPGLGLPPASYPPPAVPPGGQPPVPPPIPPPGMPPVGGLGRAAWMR
quantity-measured: IC50

query: Give the reported IC50 for this molecule. CC(O)[C@H](C)Nc1ncc(C(F)(F)F)c(-c2c[nH]c3c(P(C)(C)=O)cccc23)n1 (mixture of isomers) [Compound 128]
result: > 50 µM

query: Give the reported IC50 for this molecule. CP(C)(=O)c1cccc2c(-c3nc(N[C@@H]4COCC[C@H]4O)ncc3C(F)(F)F)c[nH]c12
result: > 50 µM

query: Give the reported IC50 for this molecule. CP(C)(=O)c1cccc2c(-c3nc(N[C@H]4COC[C@@H]4O)ncc3C(F)(F)F)c[nH]c12
result: > 50 µM

query: Give the reported IC50 for this molecule. CC1(C)COCC(Nc2ncc(C(F)(F)F)c(-c3c[nH]c4nc(C#N)ccc34)n2)CN1 (single isomer, unassigned) [Compound 63]
result: 5 to 50 µM

query: Give the reported IC50 for this molecule. FC(F)(F)c1cnc(NC2CCCC3(CCNCC3)C2)nc1-c1c[nH]c2nc(N3CCOCC3)ccc12 (stereo not shown)
result: 5 to 50 µM

query: Give the reported IC50 for this molecule. CP(C)(=O)c1c(C#N)ccc2c(-c3nc(N[C@H]4CC[C@H](N)C4)ncc3C(F)(F)F)c[nH]c12
result: 5 to 50 µM

query: Give the reported IC50 for this molecule. CP(C)(=O)c1cccc2c(-c3nc(N[C@@H]4CC[C@@]5(CCNC5)C4)ncc3C(F)(F)F)c[nH]c12
result: 0.2 to 5 µM

This collection of values is drawn from patent US20240124504A1.
